System: OVCAR-4 ovarian
Assay: NCI tumour cell line growth inhibition, 48 h
quantity: TGI

> print(dat)
                                    compound  endpoint.result
 1           O=C(/C=C\c1cccc2ccccc12)c1cccs1          32.9 µM
 2  COC(=O)C(=O)C(C(=O)C(=O)Nc1ccc(Cl)cc1C)c1nc2ccc(C(=O)c3ccccc3)cc2[nH]c1=O (stereo not given)         > 100 µM
 3  CN(C)CCn1c(=O)c2ccc3c4c(nn3CCN(C)C)c3cc(N)ccc3n(c1=O)c24        0.0511 µM
 4               O=C1CCCC2=C(N1)C(=O)C=CC2=O          67.6 µM
 5  CC(=O)Nc1ccc(C(=O)NN2C(=O)C(Cl)C2c2cc(Br)ccc2O)cc1 (stereo not given)         > 100 µM
 6  Nc1ccccc1N/C(=C\C(=O)C(Cl)(Cl)Cl)c1ccccc1         > 100 µM
 7  C/C(CC(=O)NNc1ccc([N+](=O)[O-])cc1)=N\Nc1ccc([N+](=O)[O-])cc1         > 100 µM
 8  CCCCCC(O)[C@H]1C(=O)C[C@@H](O[Si](C)(C)C(C)(C)C)[C@@H]1/C=C/CCOCc1ccccc1 (stereo not given in full)          34.1 µM
 9  CCOC(=O)C1CCn2c(nc3c2c(=O)n(C)c(=O)n3C)S1 (stereo not given)         > 100 µM
10  COc1cc(/C=C2\[C@H]3c4c(c(OC)c(C)c(OC)c4OC)C[C@@H](C(=O)N2Cc2ccccc2)N3C(=O)OC(C)C)c(OC)c(C)c1OC         > 100 µM
11              CC1(C)OC(C(N)=O)=C(C(N)=O)O1         > 100 µM
12        CN=C1Nc2ccc(Cl)cc2C(c2ccccc2)=NN1C         > 100 µM
13  CC1(C)C=C(/C=N/Nc2ccc([N+](=O)[O-])cc2)C(C#N)=C(O)C1(C#N)C#N         > 100 µM
14  CC(Sc1ccccc1)C(CO)(CO)[N+](=O)[O-] (stereo not given)          32.1 µM
15  CCCN1CN(C(C(=O)N[C@@H]2C(=O)N3C2SC(C)(C)C3C(=O)O)c2ccccc2)CSC1=S (stereo not given in full)         > 100 µM
16  C=C1C(=O)O[C@@H]2C(=O)[C@@H](C)[C@@H]3C=CC(=O)[C@@]3(C)[C@@H](OC(=O)/C(C)=C\C)[C@H]12          18.2 µM
17  Cc1ccc(S(=O)(=O)/N=c2\ssc(Nc3ccccc3)c2Cl)cc1          > 50 µM
18  OCC1OC(Oc2cc(O)cc(/C=C\c3ccc(O)cc3)c2)C(O)C(O)C1O (stereo not given)         > 100 µM
19                COC(=O)C1=CN=C(C(=O)OC)NN1         > 100 µM
20     Cn1cccc1-c1cc(-c2cccs2)[nH]c(=O)c1C#N         > 100 µM

###

System: SR leukemia
Experiment: NCI tumour cell line growth inhibition, 48 h
Where a SMILES comes first, the peptide text is derived from it.

molecule	TGI
CCCCCCCC/C=C/CCCCCCCC1=NC(C)(C)CN1C(C)C	2.42 µM
O=C(NC1CCC(=O)N1C(=O)OCc1ccccc1)OCc1ccccc1 (centres undefined)	> 100 µM
O=C(Nc1ccccc1)Nc1cccc(-n2cc(-c3ccncc3)c(-c3ccc(O)c(Cl)c3)n2)c1	6.29 µM
COC(=O)C[C@@H]1C(C)(C)[C@@H]2O[C@@]34C[C@@H]2C(=O)[C@]1(C)[C@H]3CC[C@@]1(C)[C@H](c2ccoc2)OC(=O)C[C@]14O	> 100 µM
Cc1cc(O)c(C(c2cccnc2)c2c(O)cc(C)[nH]c2=O)c(=O)[nH]1	> 100 µM
CCOC(=O)c1c(C)nc2ccc(Cl)cc2c1-c1ccccc1	48.5 µM
O=[N+]([O-])c1cc(CCl)ccc1CCl	5.17 µM
COC(=O)C(C)NP(=O)(OCc1ccc(Cn2cnc3c(=O)[nH]c(N)nc32)cc1)Oc1ccccc1 (centres undefined)	> 100 µM
O=C(CCN1CC2CCC(CC2)C1)c1cccs1	24.6 µM
COC(=O)C1Cc2cccc(C)c2C1 (centres undefined)	> 100 µM
CS(=O)(=O)c1nc(-c2cc3c(c(S(C)(=O)=O)n2)CCCC3)cc2c1CCCC2	> 100 µM
S=c1nc2[nH]ncc2c(N/N=C/c2ccccc2)[nH]1	> 100 µM
CCOC(=O)C(Cc1c2ccccc2cc2ccccc12)(NC(C)=O)C(=O)OCC	> 100 µM
O=C1CCCC2=C(N1)C(=O)C=CC2=O	57.8 µM
C=CC1ON(C)CCc2cc(OC)c(OC)cc21 (centres undefined)	> 100 µM
CN1CCC[C@@H]1CCO[C@](C)(c1ccccc1)c1ccc(Cl)cc1	9.59 µM
COC1C=CC(C(=O)[N+]2=Cc3[nH]c4ccccc4c3CC2)O1 (centres undefined)	82.7 µM
COc1c2c(cc3c1C(O)N1CC[C@]34[C@H]3O[C@H]3[C@H](OC)C[C@@H]14)OCO2 (some centres undefined)	88.6 µM
O=C1C(=O)N(C(=O)c2ccc(Cl)c(Cl)c2)c2ccc(Cl)cc21	> 100 µM
C=C1C(=O)O[C@H]2[C@H]1CC/C(COC(=O)CCCCCCCCC(=O)OC/C1=C/CC[C@@]3(C)O[C@H]3[C@H]3OC(=O)C(=C)[C@@H]3CC1)=C\CC[C@@]1(C)O[C@@H]21	11 µM
Cc1ccc2c(c1)C(=O)C(Cc1ccccc1C(=O)O)C2 (centres undefined)	> 100 µM
CC1(C)CC(=O)C2=C(C1)NC(SSC1=C(C#N)C(c3ccc(F)cc3)C3=C(CC(C)(C)CC3=O)N1)=C(C#N)C2c1ccc(F)cc1 (centres undefined)	> 150 µg/mL
CCOC(=O)/C(=C/c1ccc([N+](=O)[O-])cc1)C(=O)c1ccccc1	> 100 µM
COc1cc(C#N)cc(OC)c1OCCOCCOc1c(OC)cc(C#N)cc1OC	> 100 µM
CC(=O)NC(CCCCNC(=O)N(CCCl)N=O)C(=O)NCc1ccccc1 (centres undefined)	> 100 µM
C[C@]12CC[C@@H]3c4ccccc4CC[C@H]3[C@@H]1CC[C@@H]2O	> 100 µM
Nc1ccccc1N/C(=C\C(=O)C(Cl)(Cl)Cl)c1ccccc1	> 100 µM
O=C(c1cccc(OCc2ccccc2)c1OCc1ccccc1)N1CCSC1=S	45.2 µM
Cn1c(=O)[nH]c2[nH]c3ccccc3c2c1=O	> 100 µM
COc1ccc(NC(=O)C(=O)C2CNC(=O)NC2=O)c(OC)c1 (centres undefined)	> 100 µM
CC(C)CC(NC(=O)C(CC(C)C)NC(=O)C(Cc1cnc[nH]1)NC(=O)C(C)NC(=O)C(NC(=O)C(C)NC(=O)C(Cc1c[nH]c2ccccc12)NC(=O)C(CCC(=O)O)NC(=O)C(N)Cc1ccccc1)C(C)C)C(N)=O (centres undefined) (H-FEWAVAHLL-NH2; configuration not given here)	> 100 µM
COc1ccc2c(c1)CCc1c(-c3noc4c3CCc3cc(OC)ccc3-4)noc1-2	> 100 µM
CC(=O)OC1CC(O)CC2=CCC3C4CCC(C(C)(O)C(O)CC5COC(=O)C5C)C4(C)CCC3C21C (centres undefined)	> 25 µM
COc1ccc(N=c2ssc(C(=S)Nc3ccc(OC)cc3)c2S)cc1	> 100 µM
O=C1OCc2c1cc(F)cc2[N+](=O)[O-]	> 100 µM
Nc1ccc2c(c1)C(=O)N(O)C2=O	> 100 µM
CC1=NN(C(=O)CC(=O)Nc2ccccc2Cl)C(=O)C1N=Nc1ccc(C(=O)O)cc1 (centres undefined)	> 100 µM
Cc1cc(C)c(O)c(Cc2cccc(Cc3cc(C)cc(C)c3O)c2O)c1	> 100 µM
COc1cc(/C=C/C(=O)c2ccc(Nc3ncnc4ccccc34)cc2)cc(OC)c1	3.17 µM

###

Tested on: SF-295 CNS
Test: NCI tumour cell line growth inhibition, 48 h
quantity: TGI

> print(dat)
                                    compound  endpoint.result
 1  O=[N+]([O-])c1ccc2c(c1)c(N=NC(=S)NC1CCCCC1)c(O)n2CN1CCOCC1          16.6 µM
 2  COC1C=CC(C(=O)[N+]2=Cc3[nH]c4ccccc4c3CC2)O1 (stereo unspecified)         > 100 µM
 3  O=C(O)c1ccc2c(c1Nc1ccccc1)C(=O)c1ccccc1C2=O         > 100 µM
 4  Cc1cc(C)c(O)c(Cc2cccc(Cc3cc(C)cc(C)c3O)c2O)c1         > 100 µM
 5  OCCOCn1cc(Cn2ncc3c(SCc4ccccc4)ncnc32)nn1         > 100 µM
 6  Cc1ccc2c(c1)C(=O)C(Cc1ccccc1C(=O)O)C2 (stereo unspecified)         > 100 µM
 7          O=C(Cn1cc(-c2ccccc2)nn1)NC1CCCC1         > 100 µM
 8  COC1O[C@@H]2CCN3C(=O)[C@@H](OC(=O)c4ccc([N+](=O)[O-])cc4)[C@H]1C23 (stereo partly specified)         > 100 µM
 9      CCOC(=O)c1nc2ccccc2nc1NCc1ccc(OC)cc1         > 100 µM
10  CCCCCC(O)[C@H]1C(=O)C[C@@H](O[Si](C)(C)C(C)(C)C)[C@@H]1/C=C/CCOCc1ccccc1 (stereo partly specified)          20.3 µM
11  Nc1cc2c3c(cccc3c1)C(=O)N(c1ccc(OCCN3CCCCC3)cc1)C2=O          33.4 µM
12  O=C1C2=Cc3ccccc3OC2(O)Oc2cc(O)ccc21 (stereo unspecified)         > 100 µM
13  C[C@]12CCC(=O)C=C1CC[C@@H]1[C@@H]2CC[C@]2(C)C(=O)[C@H](n3ccnc3)C[C@@H]12         > 100 µM
14              Cc1cc(O)c(C(C)C)cc1CN1CCCCC1         > 100 µM
15  CCOC(=O)C(NC(=O)c1ccccc1)(Nc1ccc(S(=O)(=O)Nc2nc(C)cc(C)n2)cc1)C(F)(F)F (stereo unspecified)         > 100 µM
16                           NCC#CCNCCCN1CC1         > 100 µM
17  Cc1cc2c(c(C=Nc3ccc([N+](=O)[O-])cc3)c1)OC1(C=C2)Oc2ccccc2C(=O)N1C (stereo unspecified)          77.1 µM
18      Nc1nc(Nc2ccccc2)sc1C(=O)c1ccc(Cl)cc1         > 100 µM
19  COC1=NC(NC2OCC(O)C(O)C2O)=C(NC(C)=O)CN1C (stereo unspecified)         > 100 µM
20                COC(=O)C1=CN=C(C(=O)OC)NN1         > 100 µM
21  Cc1cccc2c(N=Nc3ccc(S(N)(=O)=O)cc3)c(O)[nH]c12          > 25 µM
22  Nc1ncnc2c1ncn2C1C=CC(CP(=O)(O)O)C1 (stereo unspecified)         > 100 µM
23    NC1=C(Cl)C(=O)c2ccc(S(N)(=O)=O)cc2C1=O         0.289 µM
24  CC(Sc1ccccc1)C(CO)(CO)[N+](=O)[O-] (stereo unspecified)          28.9 µM
25  O=[n+]1c2c(n([O-])c3ccccc31)-c1cccc3cccc-2c13         > 100 µM
26  CC(=O)OCC1OC(n2c(C)c(N=Nc3ccccc3)c(C)c(C#N)c2=S)C(OC(C)=O)C(OC(C)=O)C1OC(C)=O (stereo unspecified)          44.1 µM
27  CC(=O)NC(CCCCNC(=O)N(CCCl)N=O)C(=O)NCc1ccccc1 (stereo unspecified)         > 100 µM
28  O=S(=O)(O)c1cccc2c(N=Nc3c(O)ccc4ccccc34)cccc12         > 100 µM
29                     CC#CS(=O)(=O)c1ccccc1          14.5 µM
30  CCOc1ccccc1N=Nc1c(-c2ccccc2)nn(C(=O)CC(=O)Nc2cccc(Cl)c2)c1-c1ccccc1         > 100 µM
31  CCc1ccc(Nc2cc(=O)[nH]c(SCc3ccccc3)n2)cc1         > 100 µM
32  COC(=O)C(C(=O)C(=O)NC1=C(Cl)C(=O)c2ccccc2C1=O)c1csc(-n2nc(-c3ccccc3)cc2-c2ccccc2)n1 (stereo unspecified)         > 100 µM
33  CC1(C)C=C(/C=N/Nc2ccc([N+](=O)[O-])cc2)C(C#N)=C(O)C1(C#N)C#N         > 100 µM
34   CC(=O)OCCCCn1cnc2nc(Nc3ccccc3)nc(Cl)c21         > 100 µM
35  N#CC(c1ccccc1)N1CCCN(C(C#N)c2ccccc2)C1c1ccccc1O (stereo unspecified)         > 100 µM
36  Cc1ccc(OCC2OC(C#N)C(Oc3ccc(C)cc3)C2Oc2ccc(C)cc2)cc1 (stereo unspecified)         > 100 µM
37  CC(C)OCC(O)COc1ccc2ccc(=O)oc2c1 (stereo unspecified)         > 100 µM
38  CCOC(=O)/C(=C/c1ccc([N+](=O)[O-])cc1)C(=O)c1ccccc1           8.5 µM
39  O=C(c1cccc(OCc2ccccc2)c1OCc1ccccc1)N1CCSC1=S         > 100 µM
40  CC1(C)CC(=O)C2=C(C1)NC(SSC1=C(C#N)C(c3ccc(F)cc3)C3=C(CC(C)(C)CC3=O)N1)=C(C#N)C2c1ccc(F)cc1 (stereo unspecified)      > 150 µg/mL
41  COc1ccc(/C=C2\CN(Cc3cn(CCCNc4ccnc5cc(Cl)ccc45)nn3)C/C(=C\c3ccc(OC)c(OC)c3)C2=O)cc1OC           4.1 µM
